Data origin, for the record: paper PMC7807878

Target: T1, recombinant PN (rPN) (UniProt Q15063 22-836)
T1 construct: periostin (PN), recombinant, bought; also called periostin; source: bought: BioVendor (RD172045025)
T1 sequence (looked up): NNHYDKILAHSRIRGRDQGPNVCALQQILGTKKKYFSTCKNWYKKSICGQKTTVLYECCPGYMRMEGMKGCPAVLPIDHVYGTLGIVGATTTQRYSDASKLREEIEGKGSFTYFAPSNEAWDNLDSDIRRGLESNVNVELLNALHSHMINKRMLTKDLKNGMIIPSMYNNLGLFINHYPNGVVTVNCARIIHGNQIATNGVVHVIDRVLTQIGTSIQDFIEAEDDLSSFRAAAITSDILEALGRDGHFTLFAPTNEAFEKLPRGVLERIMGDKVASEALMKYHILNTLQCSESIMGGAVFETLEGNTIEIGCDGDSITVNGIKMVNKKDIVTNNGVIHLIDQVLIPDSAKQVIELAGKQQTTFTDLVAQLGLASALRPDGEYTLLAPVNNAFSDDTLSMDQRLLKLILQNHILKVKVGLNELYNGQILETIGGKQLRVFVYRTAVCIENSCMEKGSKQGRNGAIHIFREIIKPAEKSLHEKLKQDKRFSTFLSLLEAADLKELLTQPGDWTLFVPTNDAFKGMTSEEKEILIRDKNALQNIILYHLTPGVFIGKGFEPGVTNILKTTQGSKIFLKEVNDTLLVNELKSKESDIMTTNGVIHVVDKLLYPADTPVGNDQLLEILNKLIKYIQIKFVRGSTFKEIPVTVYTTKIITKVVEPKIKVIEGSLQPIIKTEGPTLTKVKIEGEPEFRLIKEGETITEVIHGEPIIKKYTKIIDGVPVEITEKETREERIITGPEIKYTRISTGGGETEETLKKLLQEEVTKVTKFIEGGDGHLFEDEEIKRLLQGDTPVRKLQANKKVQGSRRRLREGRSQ
Assay: ITC; MicroCal PEAQ-ITC; 700 nM rPN (or BSA) and 100 nM plain anti-PN peptide in 50 mM Tris, 150 mM NaCl, pH 7.5, in syringe and cell compartments
Details: both partners purified
outcome measure: Kd (pM)
Value expressed in pM; do not type the unit.

Noted for TFATHGKHWAAP (The methods mention C-terminal amidation after describing the FITC-labelled form; it is not clear whether the plain peptide is amidated too; also called candidate anti-PN peptide; source: synthetic peptide (ordered from Syn Peptide company, Shanghai)) [plain anti-PN peptide] : its Kd reads 1
